Data provenance: ChEMBL document CHEMBL4350957

- system-tested: Glutamate receptor 2 (Homo sapiens)
- Sequence (P42262 whole entry): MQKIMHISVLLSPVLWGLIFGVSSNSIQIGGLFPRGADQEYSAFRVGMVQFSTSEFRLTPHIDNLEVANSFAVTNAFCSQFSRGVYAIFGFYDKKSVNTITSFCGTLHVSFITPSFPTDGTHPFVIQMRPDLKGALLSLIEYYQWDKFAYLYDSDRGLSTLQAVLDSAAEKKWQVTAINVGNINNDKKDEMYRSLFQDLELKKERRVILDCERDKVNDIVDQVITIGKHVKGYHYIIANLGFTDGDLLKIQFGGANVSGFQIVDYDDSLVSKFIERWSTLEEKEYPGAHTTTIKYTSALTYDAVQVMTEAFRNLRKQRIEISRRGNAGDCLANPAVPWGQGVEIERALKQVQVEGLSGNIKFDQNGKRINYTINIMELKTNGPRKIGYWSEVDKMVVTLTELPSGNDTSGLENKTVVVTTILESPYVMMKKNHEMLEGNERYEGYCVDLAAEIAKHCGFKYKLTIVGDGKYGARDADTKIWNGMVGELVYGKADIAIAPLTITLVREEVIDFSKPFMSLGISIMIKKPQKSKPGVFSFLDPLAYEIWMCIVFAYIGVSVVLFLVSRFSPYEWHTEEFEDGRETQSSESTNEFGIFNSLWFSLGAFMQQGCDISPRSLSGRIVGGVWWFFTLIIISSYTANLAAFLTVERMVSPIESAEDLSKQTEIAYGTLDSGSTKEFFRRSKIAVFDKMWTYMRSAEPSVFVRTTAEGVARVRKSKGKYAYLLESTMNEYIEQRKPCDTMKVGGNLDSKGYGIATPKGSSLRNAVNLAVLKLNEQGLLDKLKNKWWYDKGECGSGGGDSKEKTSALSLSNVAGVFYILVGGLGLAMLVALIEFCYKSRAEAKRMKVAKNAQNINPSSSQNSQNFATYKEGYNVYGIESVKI
reported-endpoint: EC50

Query: What value of EC50 has been reported for the following compound? CCn1nc(O)c(CC(N)C(=O)O)n1 (racemic)
Response: > 1000 µM

###

- system-tested: Glutamate NMDA receptor
reported-endpoint: Ki

compound | value-reported
CCn1nc(O)c(CC(N)C(=O)O)n1 (racemic) | > 100 µM
CCCn1nnc(O)c1CC(N)C(=O)O (racemic) | > 100 µM

Query: Reported Ki, compound CCCn1nc(O)c(CC(N)C(=O)O)n1 (racemic) : ____
Response: > 100 µM

###

- system-tested: Ionotropic glutamate receptor NMDA 1/2D (Rattus norvegicus, UniProt P35439+Q62645)
- Sequence (Q62645 whole entry, other chains not shown): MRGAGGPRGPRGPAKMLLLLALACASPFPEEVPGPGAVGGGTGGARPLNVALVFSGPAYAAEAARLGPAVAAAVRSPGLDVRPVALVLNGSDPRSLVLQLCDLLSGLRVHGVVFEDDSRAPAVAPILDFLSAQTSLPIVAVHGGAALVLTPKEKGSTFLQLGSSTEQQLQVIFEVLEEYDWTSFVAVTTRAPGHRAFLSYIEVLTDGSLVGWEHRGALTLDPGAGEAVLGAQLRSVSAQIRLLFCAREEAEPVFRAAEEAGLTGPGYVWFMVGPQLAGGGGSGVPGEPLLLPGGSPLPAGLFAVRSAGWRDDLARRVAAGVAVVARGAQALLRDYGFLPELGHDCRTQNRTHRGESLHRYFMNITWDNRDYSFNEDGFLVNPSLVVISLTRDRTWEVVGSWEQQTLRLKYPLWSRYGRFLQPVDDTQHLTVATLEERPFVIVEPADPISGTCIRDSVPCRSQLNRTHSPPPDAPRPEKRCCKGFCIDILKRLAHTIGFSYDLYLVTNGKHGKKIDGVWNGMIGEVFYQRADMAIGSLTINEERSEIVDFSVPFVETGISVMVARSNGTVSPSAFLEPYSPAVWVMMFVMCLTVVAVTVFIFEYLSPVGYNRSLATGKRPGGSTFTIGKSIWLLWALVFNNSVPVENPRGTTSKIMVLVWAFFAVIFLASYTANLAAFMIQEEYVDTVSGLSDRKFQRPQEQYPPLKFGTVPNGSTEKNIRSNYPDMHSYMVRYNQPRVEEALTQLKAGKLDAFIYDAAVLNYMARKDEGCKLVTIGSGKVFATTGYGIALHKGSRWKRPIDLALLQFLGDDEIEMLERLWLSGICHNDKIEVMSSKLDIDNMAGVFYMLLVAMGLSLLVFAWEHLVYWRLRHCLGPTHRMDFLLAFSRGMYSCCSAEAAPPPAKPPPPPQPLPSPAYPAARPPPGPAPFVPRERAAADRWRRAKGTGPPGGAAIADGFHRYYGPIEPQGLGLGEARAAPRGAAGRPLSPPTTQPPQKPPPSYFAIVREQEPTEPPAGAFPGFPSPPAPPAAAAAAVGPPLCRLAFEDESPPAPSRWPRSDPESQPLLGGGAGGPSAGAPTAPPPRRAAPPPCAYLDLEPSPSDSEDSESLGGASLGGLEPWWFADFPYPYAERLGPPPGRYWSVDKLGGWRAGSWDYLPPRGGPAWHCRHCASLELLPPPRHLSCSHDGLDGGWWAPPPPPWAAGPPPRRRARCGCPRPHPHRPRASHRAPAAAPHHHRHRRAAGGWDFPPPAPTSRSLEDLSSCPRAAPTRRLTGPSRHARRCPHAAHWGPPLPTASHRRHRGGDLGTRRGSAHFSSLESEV
reported-endpoint: pEC50
Hey, just a heads up that pEC50 is the negative log base 10 of the concentration in molar.

Query: May I ask what pEC50 has been recorded for Cn1nc(O)c(C(N)C(=O)O)n1 (racemic) ?
Response: 4.46

###

- system-tested: Glutamate receptor 3 (Homo sapiens)
- Sequence (P42263 whole entry): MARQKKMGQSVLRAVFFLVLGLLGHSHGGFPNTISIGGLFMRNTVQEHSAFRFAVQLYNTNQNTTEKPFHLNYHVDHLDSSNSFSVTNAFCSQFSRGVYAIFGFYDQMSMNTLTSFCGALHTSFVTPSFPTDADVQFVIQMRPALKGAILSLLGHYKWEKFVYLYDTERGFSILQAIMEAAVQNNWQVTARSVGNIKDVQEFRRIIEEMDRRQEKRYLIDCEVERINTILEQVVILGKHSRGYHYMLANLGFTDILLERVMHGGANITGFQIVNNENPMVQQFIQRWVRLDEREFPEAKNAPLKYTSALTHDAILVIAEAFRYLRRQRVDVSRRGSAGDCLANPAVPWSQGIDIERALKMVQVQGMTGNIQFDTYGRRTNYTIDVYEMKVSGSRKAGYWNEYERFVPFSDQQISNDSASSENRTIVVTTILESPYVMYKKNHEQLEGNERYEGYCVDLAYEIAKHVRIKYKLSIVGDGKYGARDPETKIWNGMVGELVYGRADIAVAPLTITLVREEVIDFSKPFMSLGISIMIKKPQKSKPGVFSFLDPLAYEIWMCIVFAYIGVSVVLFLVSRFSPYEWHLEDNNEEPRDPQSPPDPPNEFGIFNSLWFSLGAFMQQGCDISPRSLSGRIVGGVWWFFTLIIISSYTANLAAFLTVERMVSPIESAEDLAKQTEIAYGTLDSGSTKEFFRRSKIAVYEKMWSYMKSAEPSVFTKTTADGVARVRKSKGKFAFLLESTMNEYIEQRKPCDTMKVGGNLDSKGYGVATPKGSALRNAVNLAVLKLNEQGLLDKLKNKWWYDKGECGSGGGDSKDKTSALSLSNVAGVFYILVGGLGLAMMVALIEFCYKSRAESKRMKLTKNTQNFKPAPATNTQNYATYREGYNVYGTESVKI
pEC50: −log10 of the molar value.
reported-endpoint: pEC50

Query: // query pEC50 value for entry CCn1nc(O)c(CC(N)C(=O)O)n1 (racemic)
Response: < 3.00
